Hello, the source for this data is the kinase profiling compilation of Christmann-Franck et al. (2016), in case you need it.

Molecular target: PKN1 (human)
Assay: radiometric filter-binding kinase assay, Kinase HotSpot
Conditions: compound 0.5 µM; ATP 10 µM
Below is a list of entries, each paired with its recorded residual activity value.
Kindly provide the numeric value in % only, without the unit symbol.

// solved cases for residual activity follow
• O=S(=O)(NCCNC/C=C/c1ccc(Br)cc1)c1cccc2cnccc12 = 14.3
• O=C(c1ccccc1)c1ccc(N2CCOCC2)cc1O = 104
• COc1cccc(-c2cc(=O)c3ccccc3o2)c1N = 102

Can you look up the measured residual activity of `CCOc1cc2ncnc(Nc3cccc(Br)c3)c2cc1OCC` for me?
100

Continue with `N/C(=N\N=C/c1ccc(-c2cccc([N+](=O)[O-])c2)o1)N[N+](=O)[O-]`
93.9

---

Molecular target: BRSK2 (human) (UniProt Q8IWQ3)
Sequence (Q8IWQ3 whole entry, looked up): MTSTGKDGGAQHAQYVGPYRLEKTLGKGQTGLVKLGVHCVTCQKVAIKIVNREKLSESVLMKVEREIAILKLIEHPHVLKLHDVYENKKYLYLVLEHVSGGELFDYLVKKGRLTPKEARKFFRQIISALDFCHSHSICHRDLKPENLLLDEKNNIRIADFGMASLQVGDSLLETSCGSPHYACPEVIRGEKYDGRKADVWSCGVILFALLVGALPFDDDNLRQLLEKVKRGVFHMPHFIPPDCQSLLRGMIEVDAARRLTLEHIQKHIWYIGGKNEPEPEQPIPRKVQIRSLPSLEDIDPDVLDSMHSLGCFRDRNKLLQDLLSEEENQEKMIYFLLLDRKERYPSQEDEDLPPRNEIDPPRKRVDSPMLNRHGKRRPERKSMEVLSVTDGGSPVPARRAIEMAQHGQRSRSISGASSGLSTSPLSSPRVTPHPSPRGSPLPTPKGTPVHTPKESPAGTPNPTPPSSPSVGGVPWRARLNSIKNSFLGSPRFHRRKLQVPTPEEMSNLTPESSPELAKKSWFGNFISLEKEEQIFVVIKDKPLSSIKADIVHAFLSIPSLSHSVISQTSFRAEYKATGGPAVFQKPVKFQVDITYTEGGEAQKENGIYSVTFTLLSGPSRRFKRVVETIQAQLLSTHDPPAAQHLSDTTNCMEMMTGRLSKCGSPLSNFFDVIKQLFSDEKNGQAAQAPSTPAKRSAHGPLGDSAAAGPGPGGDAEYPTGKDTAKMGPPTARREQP
Assay: radiometric filter-binding kinase assay, Kinase HotSpot
Conditions: compound 0.5 µM; ATP 10 µM
measure: residual activity (%)
Kindly provide the numeric value in % only, without the unit symbol.

- O=C(c1ccccc1)c1ccc(N2CCOCC2)cc1O: 95.5
- O=C(O)c1ccc2c3c1cccc3c(=O)n1c3ccccc3nc21: 90.4
- COc1cccc(-c2cc(=O)c3ccccc3o2)c1N: 98

Can you look up the measured residual activity of `CCc1nc(-c2ccc(OC)cc2)[nH]c1-c1ccncc1` for me?
105

Continue with `O=C1NC(=O)c2cc(Nc3ccc(F)cc3)c(Nc3ccc(F)cc3)cc21`
96.8

Continue with `N#CCCc1ccc2c(c1)-c1[nH]c3ccc([N+](=O)[O-])cc3c1CC(=O)N2`
42

Continue with `O=S(=O)(NCCNC/C=C/c1ccc(Br)cc1)c1cccc2cnccc12`
92.4

Continue with `O=c1cc(N2CCOCC2)oc2c(-c3ccccc3)cccc12`
96.2

Continue with `N#C/C(=C1/Nc2ccccc2S1)c1ccnc(NCCc2cccnc2)n1`
88.1

Continue with `CCCCc1c(-c2ccc(O)cc2)[nH]c2nccnc12`
87.2

Continue with `Cn1cc(/C=C2\C(=O)Nc3ccc(S(N)(=O)=O)cc32)c2ccccc21`
65.5

---

Below is a list of entries, each paired with its recorded residual activity value.
Target: KIT (human) (UniProt P10721)
Sequence (P10721 whole entry, looked up): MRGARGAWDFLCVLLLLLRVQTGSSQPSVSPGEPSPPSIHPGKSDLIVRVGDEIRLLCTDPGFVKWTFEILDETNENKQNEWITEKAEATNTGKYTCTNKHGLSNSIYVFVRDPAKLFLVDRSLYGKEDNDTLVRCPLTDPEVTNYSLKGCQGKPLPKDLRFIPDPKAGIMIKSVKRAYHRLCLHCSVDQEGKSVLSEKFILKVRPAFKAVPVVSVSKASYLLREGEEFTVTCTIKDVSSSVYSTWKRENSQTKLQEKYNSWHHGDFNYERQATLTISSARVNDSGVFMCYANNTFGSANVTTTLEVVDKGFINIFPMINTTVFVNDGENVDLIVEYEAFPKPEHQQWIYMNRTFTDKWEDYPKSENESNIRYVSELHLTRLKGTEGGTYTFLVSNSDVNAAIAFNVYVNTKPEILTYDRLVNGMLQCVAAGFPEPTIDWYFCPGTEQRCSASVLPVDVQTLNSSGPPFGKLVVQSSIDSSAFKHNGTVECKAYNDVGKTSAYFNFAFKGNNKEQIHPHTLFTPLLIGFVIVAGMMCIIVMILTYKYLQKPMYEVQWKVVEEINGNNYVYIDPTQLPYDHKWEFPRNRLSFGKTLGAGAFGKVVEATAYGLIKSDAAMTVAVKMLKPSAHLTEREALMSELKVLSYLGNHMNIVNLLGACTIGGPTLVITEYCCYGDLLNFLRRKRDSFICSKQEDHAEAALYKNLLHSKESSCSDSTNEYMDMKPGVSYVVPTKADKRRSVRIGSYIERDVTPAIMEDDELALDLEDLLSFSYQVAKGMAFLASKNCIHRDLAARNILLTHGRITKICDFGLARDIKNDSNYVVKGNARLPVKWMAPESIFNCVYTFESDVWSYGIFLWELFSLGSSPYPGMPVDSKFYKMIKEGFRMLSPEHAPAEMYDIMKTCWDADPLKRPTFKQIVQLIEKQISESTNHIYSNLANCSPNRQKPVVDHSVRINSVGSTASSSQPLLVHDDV
Experiment: radiometric filter-binding kinase assay, Kinase HotSpot
Details: compound 0.5 µM; ATP 10 µM
Kindly provide the numeric value in % only, without the unit symbol.

- CCOc1cc2ncnc(Nc3cccc(Br)c3)c2cc1OCC: 74.4

Can you look up the measured residual activity of `O=S(=O)(NCCNC/C=C/c1ccc(Br)cc1)c1cccc2cnccc12` for me?
101

Continue with `O=c1[nH]c2ccccc2n1C1CCN(Cc2ccc(-c3nc4cc5[nH]cnc5cc4nc3-c3ccccc3)cc2)CC1`
91.7

Continue with `O=c1cc(N2CCOCC2)oc2c(-c3ccccc3)cccc12`
92.9

Continue with `CCc1nc(-c2ccc(OC)cc2)[nH]c1-c1ccncc1`
92.7

---

Target: UniProtKB O75116
Sequence (O75116 whole entry, looked up): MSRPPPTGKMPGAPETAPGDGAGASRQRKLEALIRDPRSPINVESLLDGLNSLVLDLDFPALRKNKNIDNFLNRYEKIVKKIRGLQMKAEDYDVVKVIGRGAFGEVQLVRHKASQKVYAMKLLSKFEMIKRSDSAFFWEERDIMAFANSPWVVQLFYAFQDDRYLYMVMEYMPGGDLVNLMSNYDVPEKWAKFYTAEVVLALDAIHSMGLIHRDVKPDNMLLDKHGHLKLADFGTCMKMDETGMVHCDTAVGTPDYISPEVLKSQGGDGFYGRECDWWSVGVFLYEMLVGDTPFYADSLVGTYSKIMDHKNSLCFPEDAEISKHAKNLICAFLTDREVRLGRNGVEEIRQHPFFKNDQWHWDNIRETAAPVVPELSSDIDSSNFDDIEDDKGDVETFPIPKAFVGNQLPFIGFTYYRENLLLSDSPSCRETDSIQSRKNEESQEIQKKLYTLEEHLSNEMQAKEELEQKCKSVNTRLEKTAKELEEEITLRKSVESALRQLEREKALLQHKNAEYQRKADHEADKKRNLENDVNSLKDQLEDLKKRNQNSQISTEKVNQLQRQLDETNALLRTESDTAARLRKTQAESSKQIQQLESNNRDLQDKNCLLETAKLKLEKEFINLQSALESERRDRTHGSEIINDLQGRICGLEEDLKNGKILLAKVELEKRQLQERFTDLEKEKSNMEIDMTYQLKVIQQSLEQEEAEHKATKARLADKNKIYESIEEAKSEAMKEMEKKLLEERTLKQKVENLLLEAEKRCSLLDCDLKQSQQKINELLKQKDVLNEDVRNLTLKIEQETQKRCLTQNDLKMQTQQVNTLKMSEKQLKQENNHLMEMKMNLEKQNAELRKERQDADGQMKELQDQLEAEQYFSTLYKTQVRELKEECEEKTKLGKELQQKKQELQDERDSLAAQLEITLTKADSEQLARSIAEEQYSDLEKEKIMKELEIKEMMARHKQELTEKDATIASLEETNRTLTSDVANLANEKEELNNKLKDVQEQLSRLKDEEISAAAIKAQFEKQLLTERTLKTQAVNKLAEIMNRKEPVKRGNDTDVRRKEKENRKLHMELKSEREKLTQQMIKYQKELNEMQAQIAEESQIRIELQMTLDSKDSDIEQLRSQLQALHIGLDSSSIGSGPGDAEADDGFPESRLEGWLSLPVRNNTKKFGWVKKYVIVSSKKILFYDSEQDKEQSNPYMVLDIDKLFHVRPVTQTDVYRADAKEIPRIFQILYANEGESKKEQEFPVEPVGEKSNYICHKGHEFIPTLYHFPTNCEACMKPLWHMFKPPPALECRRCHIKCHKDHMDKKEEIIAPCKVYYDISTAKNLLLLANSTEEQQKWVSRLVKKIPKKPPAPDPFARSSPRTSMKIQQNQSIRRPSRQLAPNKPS
Test: radiometric filter-binding kinase assay, Kinase HotSpot
Conditions: compound 0.5 µM; ATP 10 µM
Assign T whenever residual activity does not fall below 90%; assign F whenever it does.

* O=c1cc(N2CCOCC2)oc2c(-c3ccccc3)cccc12 | T

I'd appreciate it if you could say whether `CCc1nc(-c2ccc(OC)cc2)[nH]c1-c1ccncc1` has residual activity at least equal to 90%.
T

Continue with `N#C/C(=C1/Nc2ccccc2S1)c1ccnc(NCCc2cccnc2)n1`
F

Continue with `Cn1cc(/C=C2\C(=O)Nc3ccc(S(N)(=O)=O)cc32)c2ccccc21`
F

Continue with `FC(F)(F)c1ccc(/C=C/c2nc(COc3ccc(CCCCn4ccnn4)cc3)co2)cc1`
T

Continue with `O=C(O)c1ccc2c3c1cccc3c(=O)n1c3ccccc3nc21`
T

Continue with `N/C(=N\N=C/c1ccc(-c2cccc([N+](=O)[O-])c2)o1)N[N+](=O)[O-]`
F

Continue with `CCCCc1c(-c2ccc(O)cc2)[nH]c2nccnc12`
T

Continue with `O=C(c1ccccc1)c1ccc(N2CCOCC2)cc1O`
T

Continue with `O=C1NC(=O)c2c1c1c3ccccc3[nH]c1c1[nH]c3cc(Br)ccc3c21`
F

Continue with `COc1cc2c(cc1OC)-c1[nH]nc(Nc3cccc(F)c3)c1C2`
T
